Reference source: ChEMBL document CHEMBL1137744

test: Cytotoxicity against human MT4 cells by MTT assay; assay type: cell-based
measurement_label: CC50 (µM)
Provide only the numeric value, understood in µM.

Problem: What does the record list as CC50 for `Cc1cc(C(=O)N(C(=S)OCCN2C(=O)c3ccccc3C2=O)c2ccc(Cl)cc2)ccc1Br` ?
Result: 18

Problem: Dear colleague, I am looking for the recorded CC50 of the following molecule: `O=C1c2ccccc2C(=O)N1CCOC(=S)N(C(=O)c1ccc(Cl)c(Cl)c1)c1ccccc1`
Result: 52

Problem: Name the reported CC50 value associated with the molecule `O=C1c2ccccc2C(=O)N1CCOC(=S)N(C(=O)c1ccco1)c1cccc(Cl)c1Cl`
Result: 100

Problem: If you can, please state the reported CC50 value of `Cc1ccc(N(C(=O)c2ccc(F)cc2F)C(=S)OCCN2C(=O)c3ccccc3C2=O)cc1` .
Result: 20

Problem: Would you kindly share the measured CC50 for `Cc1ccc2c(c1)C(=O)N(CCOC(=S)N(C(=O)c1cccnc1Cl)c1ccc(Cl)cc1)C2=O` ?
Result: 49

Problem: Endpoint output: CC50 of `Cc1ccc(N(C(=O)c2ccc(Cl)c(Cl)c2)C(=S)OCCN2C(=O)c3ccccc3C2=O)cc1` . Value?
Result: 17

Problem: Bench note: what CC50 did `O=C1c2ccccc2C(=O)N1CCOC(=S)N(C(=O)c1ccc(Cl)c(Cl)c1)c1ccc(Cl)cc1` show?
Result: 35

Problem: May I ask what CC50 has been recorded for `O=C1c2ccccc2C(=O)N1CCOC(=S)N(C(=O)c1cccc([N+](=O)[O-])c1)c1c(Cl)cc(Cl)cc1Cl` ?
Result: 20

Problem: // query CC50 value for entry `COc1cccc(OC)c1C(=O)N(C(=S)OCCN1C(=O)c2ccccc2C1=O)c1ccc(Cl)cc1`
Result: 69
